Data origin: PubChem BioAssay (NCI)

# System: MDA-MB-435
# test_description: NCI tumour cell line growth inhibition, 48 h
Please provide measured TGI for the entries that follow.

Examples with their reported TGI follow.
INSERT INTO measurements (compound, experimental_system, readout_value) VALUES
  ('COc1ccc(C(=O)c2sc3nc(-c4cccs4)ccc3c2N)cc1OC', 'MDA-MB-435', '4.76 µM'),
  ('CCC(C)C(=O)OCC(=O)c1ccc(-c2ccccc2)cc1 (stereo not given)', 'MDA-MB-435', '> 100 µM'),
  ('CSc1nc(N)c2c(-c3ccccc3)c3c(nc2n1)CCCC3', 'MDA-MB-435', '> 100 µM');

Dear reader, for each entry below, please note its TGI.
1. C[C@@H](CO)NC(=O)c1cc(-c2ccc(Cl)cc2)nn(-c2cnn(C)c2)c1=O
2. COC1CC(N)C(O)C(C)O1 (stereo not given)
3. O=C(CCCN1CCC(C(O)c2ccc(F)cc2)CC1)c1ccc(F)cc1 (stereo not given)
4. O=C(Nc1ccc(S(=O)(=O)/N=c2\ncccn2C(=O)C(C(F)(F)F)C(F)(F)F)cc1)C(C(F)(F)F)C(F)(F)F
5. COc1nc2ccc(COc3ccc(C(=O)O)cc3)cc2nc1OC
6. O=C1C(c2c(O)[nH]c3ccc(Br)cc23)=Nc2ccc(Br)cc21

Given back:
["> 100 µM", "> 100 µM", "109 µM", "> 100 µM", "> 100 µM", "> 100 µM"]

Asked: Any idea what TGI was measured for CC(=O)OCC1OC(n2c(Br)nc3c2c(=O)n(C)c(=O)n3C)C(OC(C)=O)C1OC(C)=O (stereo not given) ?
Given back: > 100 µM
